From: PubChem BioAssay AID2060906

Test system: 485176-168-R4-J1-PDC complex spheroid growth
Experiment: Anticancer human tumor 485176-168-R4-J1-PDC patient-derived pancreatic adenocarcinoma cell line growth inhibition [RAS]
Conditions: second compound 0.0316 µM; first compound 0.00316 µM; stronger effect = lower value
measurementType: viability, T/C (%)
Provide only the numeric value, understood in %.

input: I am curious: what viability, T/C value has been reported for CC(C)n1nc(-c2ccc3oc(N)nc3c2)c2c(N)ncnc21 + C#Cc1c(F)ccc2cc(O)cc(-c3ncc4c(N5CC6CCC(C5)N6)nc(OCC56CCCN5CC(F)C6)nc4c3F)c12 ?
output: 88.6

input: Please do the same for C=CC(=O)Nc1cc(Nc2nccc(-c3cn(C)c4ccccc34)n2)c(OC)cc1N(C)CCN(C)C + C=CC(=O)N1CCN(c2nc(OCC3CCCN3C)nc3c(F)c(-c4nc(N)cc(C)c4C(F)(F)F)c(Cl)cc23)C(C)C1 as well.
output: 111

input: Same question, Nc1ccn(C2OC(CO)C(O)C2(F)F)c(=O)n1 (stereo not given) + C=CC(=O)N1CCN(c2nc(OCC3CCCN3C)nc3c(F)c(-c4nc(N)cc(C)c4C(F)(F)F)c(Cl)cc23)C(C)C1 this time
output: 84.2

input: Same lookup for Nc1ccn(C2OC(CO)C(O)C2(F)F)c(=O)n1 (stereo not given) + C#Cc1c(F)ccc2cc(O)cc(-c3ncc4c(N5CC6CCC(C5)N6)nc(OCC56CCCN5CC(F)C6)nc4c3F)c12 , please.
output: 84

input: Quick one: C=CC(=O)Nc1cc(Nc2nccc(-c3cn(C)c4ccccc34)n2)c(OC)cc1N(C)CCN(C)C + C#Cc1c(F)ccc2cc(O)cc(-c3ncc4c(N5CC6CCC(C5)N6)nc(OCC56CCCN5CC(F)C6)nc4c3F)c12
output: 103

---

System: 485176-168-R4-J1-PDC complex spheroid growth
Assay: Anticancer human tumor 485176-168-R4-J1-PDC cell line growth inhibition [RAS];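 also: spheroids exposed to compounds for seven days before readout; luminescence viability expressed relative to DMSO vehicle wells set as 100%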
Details: second compound 0.0949 µM; first compound 0.03 µM; stronger effect = lower value
measurementType: viability, T/C (%)
Kindly answer with a numeric value in %, unit omitted.

input: // query viability, T/C value for entry CC1(C)CCC(Nc2ncc(C(F)(F)F)c(-c3c[nH]c4c(P(C)(C)=O)c(C#N)ccc34)n2)CN1 (centres undefined) + CCn1c(-c2cc(N3CCN(C)CC3)cnc2C(C)OC)c2c3cc(ccc31)-c1csc(n1)CC(NC(=O)C1CC1C)C(=O)N1CCCC(N1)C(=O)OCC(C)(C)C2
output: 57.4

input: Next: CCc1c2c(nc3ccc(O)cc13)-c1cc3c(c(=O)n1C2)COC(=O)[C@]3(O)CC + CCn1c(-c2cc(N3CCN(C)CC3)cnc2C(C)OC)c2c3cc(ccc31)-c1csc(n1)CC(NC(=O)C1CC1C)C(=O)N1CCCC(N1)C(=O)OCC(C)(C)C2
output: 32.5

input: And what about the compound CC1(C)CCC(Nc2ncc(C(F)(F)F)c(-c3c[nH]c4c(P(C)(C)=O)c(C#N)ccc34)n2)CN1 (centres undefined) + CCn1c(-c2cccnc2C(C)OC)c2c3cc(ccc31)N1CCOC(CC(NC(=O)C(C(C)C)N(C)C(=O)C3(F)CCN(C(=O)C#CC(C)(C)N(C)C)CC3)C(=O)N3CCCC(N3)C(=O)OCC(C)(C)C2)C1 ?
output: 42.2

input: // next record CCc1c2c(nc3ccc(O)cc13)-c1cc3c(c(=O)n1C2)COC(=O)[C@]3(O)CC + CCn1c(-c2cccnc2C(C)OC)c2c3cc(ccc31)N1CCOC(CC(NC(=O)C(C(C)C)N(C)C(=O)C3(F)CCN(C(=O)C#CC(C)(C)N(C)C)CC3)C(=O)N3CCCC(N3)C(=O)OCC(C)(C)C2)C1
output: 19.7
